measurement-description: TED14856 Part A: plasma pharmacokinetics of compound (1)
Format: in vivo, human
experimental-conditions: human, plasma, oral, 600 mg, single 600 mg, Cycle1 Day 1, fasted, N=3; read-out: AUC0-24 (Geometric Mean)
measured-property: AUC(0-t) (ng·h/mL)
Numbers only, in ng·h/mL.

Asked: Using the record for O=C(O)c1ccc2c(c1)CCCC(c1ccc(Cl)cc1Cl)=C2c1ccc(O[C@H]2CCN(CCCF)C2)cc1 , report its AUC(0-t).
Given back: 53400

====

measurement-description: TED14856 Part A: plasma pharmacokinetics of compound (1)
Assay type: in vivo, human
experimental-conditions: human, plasma, oral, 20 mg, single 20 mg, Cycle1 Day 1, fasted, N = 1; read-out: Vss/F (Mean ± SD)
measured-property: Vd/F (L)
One number for each entry, in L.

Asked: Using the record for O=C(O)c1ccc2c(c1)CCCC(c1ccc(Cl)cc1Cl)=C2c1ccc(O[C@H]2CCN(CCCF)C2)cc1 [compound (1)] , report its Vd/F.
Given back: 81.9

====

measurement-description: TED14856 Part A: plasma pharmacokinetics of compound (1)
Assay type: in vivo, human
experimental-conditions: female, human, plasma, oral, 20 mg, single 20 mg, Cycle1 Day 1, fasted, N=3; read-out: Cmax (Mean ± SD)
measured-property: Cmax (ng/mL)
Give bare numbers, in ng/mL.

Asked: Using the record for O=C(O)c1ccc2c(c1)CCCC(c1ccc(Cl)cc1Cl)=C2c1ccc(O[C@H]2CCN(CCCF)C2)cc1 , report its Cmax.
Given back: 187

====

measurement-description: TED14856 Part A: plasma pharmacokinetics of compound (1)
Format: in vivo, human
experimental-conditions: human, plasma, oral, 20 mg, single 20 mg, Cycle1 Day 1, fasted, N=3; read-out: Cmax (Geometric Mean)
measured-property: Cmax (ng/mL)
Numbers only, in ng/mL.

Asked: Using the record for O=C(O)c1ccc2c(c1)CCCC(c1ccc(Cl)cc1Cl)=C2c1ccc(O[C@H]2CCN(CCCF)C2)cc1 [compound (1)] , report its Cmax.
Given back: 183

====

measurement-description: Pilot food effect on PK (moderate fat breakfast, Day 3 Cycle 1, Part A)
Type: in vivo, human
experimental-conditions: female, human, plasma, oral, overall across doses, read-out: delay of median tmax with food
measured-property: Tmax

Asked: Using the record for O=C(O)c1ccc2c(c1)CCCC(c1ccc(Cl)cc1Cl)=C2c1ccc(O[C@H]2CCN(CCCF)C2)cc1 [compound (1)] , report its Tmax.
Given back: ~1 h

====

measurement-description: TED14856 Part A: plasma pharmacokinetics of compound (1)
Type: in vivo, human
experimental-conditions: human, plasma, oral, 600 mg, repeated 600 mg once daily, Cycle1 Day 22, fasted, N=3; read-out: tmax (median)
measured-property: Tmax (h)
One number for each entry, in h.

Asked: Using the record for O=C(O)c1ccc2c(c1)CCCC(c1ccc(Cl)cc1Cl)=C2c1ccc(O[C@H]2CCN(CCCF)C2)cc1 [compound (1)] , report its Tmax.
Given back: 3

====

measurement-description: TED14856 Part A: plasma pharmacokinetics of compound (1)
Format: in vivo, human
experimental-conditions: human, plasma, oral, 200 mg, repeated 200 mg once daily, Cycle1 Day 22, fasted, N=3; read-out: Cmax (Mean ± SD)
measured-property: Cmax (ng/mL)
Give bare numbers, in ng/mL.

Asked: Using the record for O=C(O)c1ccc2c(c1)CCCC(c1ccc(Cl)cc1Cl)=C2c1ccc(O[C@H]2CCN(CCCF)C2)cc1 [compound (1)] , report its Cmax.
Given back: 2150
